Assay: Pharmacokinetics of C6 in mice (IV, SC, oral)
Conditions: mouse, plasma, iv, 4 mg/kg
Metric Name: Tmax (min)
Give the value, in units of min, as a plain number.

Input: Fill in: Tmax of CC[C@H](C)[C@H](NC(=O)[C@@H]1CC[C@H](c2ccc(C)o2)N1C(=O)[C@@H](NC(=O)[C@H](C)NC)C(C)C)C(=O)NC(c1ccccc1)c1ccccc1 [Compound 6] is ___
Output: 4.8
